biological target: human IgEλ (U266 derived) (human, UniProt P01854-1 1-428); assay: cell-based or functional assay
Sequence (P01854 other isoform, or with tags, fused parts or gaps): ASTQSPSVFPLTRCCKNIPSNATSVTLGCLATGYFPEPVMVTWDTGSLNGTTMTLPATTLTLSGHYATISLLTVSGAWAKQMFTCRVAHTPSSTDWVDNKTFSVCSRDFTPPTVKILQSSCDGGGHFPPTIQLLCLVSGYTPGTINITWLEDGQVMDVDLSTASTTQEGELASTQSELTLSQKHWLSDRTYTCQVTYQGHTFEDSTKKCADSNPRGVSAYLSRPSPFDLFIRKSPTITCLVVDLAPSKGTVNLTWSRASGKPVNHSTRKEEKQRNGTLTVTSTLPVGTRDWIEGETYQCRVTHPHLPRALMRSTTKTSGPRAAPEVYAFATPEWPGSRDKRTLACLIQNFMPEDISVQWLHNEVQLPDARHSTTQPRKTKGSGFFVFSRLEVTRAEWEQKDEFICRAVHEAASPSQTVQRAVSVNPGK
assay-endpoint: RBL-ER51 calcium signalling IC50 (Geomean), Human IgE (nM)
# output: bare number, implied unit nM

Here's what some known entries look like.
- binder: "Antibody 8 IgG (antibody, V domains shown, Whole human IgG (section 1.4: IgG1)) VH: QVQLVQSGAEVKKPGATVKLSCKVYGYIFTDYNIYWVRQAPGKGLEWMGLIDPDNGETFYAEKFQGRATMTADTSSDRAYMELTSLTFEDTATYYCATVLGRWIKGGYDYWGRGTLVTVSS VL: QSVLTQPPSVSGAPGQRVTISCTGSSSNIGAGYDVHWYQQLPGTAPKLLIYDNFNRPSGVPDRFSGSKSGTSASLAIIGLQTEDEADYYCQSYDSPTHTSPFGTGTKLTVL"
  value-units: "nM"
  observed-value: 0.112
- binder: "Antibody 20 IgG (antibody, V domains shown, Whole human IgG (section 1.4: IgG1)) VH: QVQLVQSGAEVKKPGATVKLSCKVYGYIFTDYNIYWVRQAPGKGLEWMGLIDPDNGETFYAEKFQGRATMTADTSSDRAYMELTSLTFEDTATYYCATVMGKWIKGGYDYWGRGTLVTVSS VL: QSVLTQPPSVSGAPGQRVTISCTGSSSNIGAGYDVHWYQQLPGTAPKLLIYDNFNRPSGVPDRFSGSKSGTSASLAIIGLQTEDEADYYCQSYDSSTSSSPFGTGTKLTVL"
  value-units: "nM"
  observed-value: 0.191
- binder: "Antibody 11 IgG (antibody, V domains shown, Whole human IgG (section 1.4: IgG1)) VH: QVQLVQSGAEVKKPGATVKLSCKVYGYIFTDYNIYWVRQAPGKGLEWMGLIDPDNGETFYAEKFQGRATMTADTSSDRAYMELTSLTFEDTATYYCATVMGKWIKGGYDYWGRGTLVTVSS VL: QSVLTQPPSVSGAPGQRVTISCTGSSSNIGAGYDVHWYQQLPGTAPKLLIYDNFNRPSGVPDRFSGSKSGTSASLAIIGLQTEDEADYYCQSYDSPTLTSPFGTGTKLTVL"
  value-units: "nM"
  observed-value: 0.069
- binder: "Antibody 22 IgG (antibody, V domains shown) VH: QVQLVQSGAEVKKPGATVKLSCKVYGYIFTDYNIYWVRQAPGKGLEWMGLIDPDNGETFYAEKFQGRATMTADTSSDRAYMELTSLTFEDTATYYCATVTLKSAKGGYDYWGRGTLVTVSS VL: QSVLTQPPSVSGAPGQRVTISCTGSSSNIGAGYDVHWYQQLPGTAPKLLIYDNFNRPSGVPDRFSGSKSGTSASLAIIGLQTEDEADYYCQSYDSSGGYAPFGTGTKLTVL"
  value-units: "nM"
  observed-value: 0.262
- binder: "Antibody 4 IgG (antibody, V domains shown, Whole human IgG (section 1.4: IgG1)) VH: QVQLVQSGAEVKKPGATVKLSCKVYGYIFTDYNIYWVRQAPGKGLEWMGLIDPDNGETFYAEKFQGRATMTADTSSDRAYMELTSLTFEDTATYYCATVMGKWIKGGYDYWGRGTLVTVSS VL: QSVLTQPPSVSGAPGQRVTISCTGSSSNIGAGYDVHWYQQLPGTAPKLLIYDNFNRPSGVPDRFSGSKSGTSASLAIIGLQTEDEADYYCQSYDSRGGHSPFGTGTKLTVL"
  value-units: "nM"
  observed-value: 0.088

Value lookup for RBL-ER51 calcium signalling IC50 (Geomean), Human IgE; key = Antibody 19 IgG (antibody, V domains shown, Whole human IgG (section 1.4: IgG1)) VH: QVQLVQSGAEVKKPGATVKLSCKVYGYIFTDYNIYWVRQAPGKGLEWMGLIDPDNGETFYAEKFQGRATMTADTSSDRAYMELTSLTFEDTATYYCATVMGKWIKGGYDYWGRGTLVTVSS VL: QSVLTQPPSVSGAPGQRVTISCTGSSSNIGAGYDVHWYQQLPGTAPKLLIYDNFNRPSGVPDRFSGSKSGTSASLAIIGLQTEDEADYYCQSYDSTLSHSPFGTGTKLTVL 0.095

Returns the measured RBL-ER51 calcium signalling IC50 (Geomean), Human IgE for the input binder. Input: Antibody 6 IgG (antibody, V domains shown, Whole human IgG (section 1.4: IgG1)) VH: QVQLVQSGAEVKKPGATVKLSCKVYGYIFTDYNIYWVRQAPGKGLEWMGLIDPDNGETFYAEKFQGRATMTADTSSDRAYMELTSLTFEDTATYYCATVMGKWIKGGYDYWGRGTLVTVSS VL: QSVLTQPPSVSGAPGQRVTISCTGSSSNIGAGYDVHWYQQLPGTAPKLLIYDNFNRPSGVPDRFSGSKSGTSASLAIIGLQTEDEADYYCQSYDSTMRHGPFGTGTKLTVL 0.096

Which RBL-ER51 calcium signalling IC50 (Geomean), Human IgE reading was recorded for the binder Antibody 16 IgG (antibody, V domains shown, Whole human IgG (section 1.4: IgG1)) VH: QVQLVQSGAEVKKPGATVKLSCKVYGYIFTDYNIYWVRQAPGKGLEWMGLIDPDNGETFYAEKFQGRATMTADTSSDRAYMELTSLTFEDTATYYCATVSLKSAKGGYDYWGRGTLVTVSS VL: QSVLTQPPSVSGAPGQRVTISCTGSSSNIGAGYDVHWYQQLPGTAPKLLIYDNFNRPSGVPDRFSGSKSGTSASLAIIGLQTEDEADYYCQSYDSRHHHAPFGTGTKLTVL ? 0.292
